Please go through the items and note down their MIC.
- Test system: Staphylococcus aureus
- protocolText: Antibacterial activity against methicillin-sensitive Staphylococcus aureus 16-1 assessed as inhibition of bacterial growth by CLSI based micro broth double dilution method
- Type: functional
Answers are plain numbers, in µg/mL.

# smilesEntry, testedOn, MIC / µg/mL
rows = [
    ("CC[C@H]1OC(=O)[C@@](C)(F)C(=O)[C@H](C)[C@@H](O[C@@H]2O[C@H](C)C[C@H](N(C)C)[C@H]2O)[C@@](C)(OC)C[C@@H](C)C(=O)[C@H](C)[C@H]2N(CCCOc3ccnc4ccccc34)C(=O)O[C@]12C", "Staphylococcus aureus", 0.5),
    ("CC[C@H]1OC(=O)[C@@](C)(F)C(=O)[C@H](C)[C@@H](O[C@@H]2O[C@H](C)C[C@H](N(C)C)[C@H]2O)[C@@](C)(OC)C[C@@H](C)C(=O)[C@H](C)[C@H]2N(CCCN(Cc3ccccc3)c3ccnc4ccccc34)C(=O)O[C@]12C", "Staphylococcus aureus", 1),
    ("CC[C@H]1OC(=O)[C@@](C)(F)C(=O)[C@H](C)[C@@H](O[C@@H]2O[C@H](C)C[C@H](N(C)C)[C@H]2O)[C@@](C)(OC)C[C@@H](C)C(=O)[C@H](C)[C@H]2N(CCCN(C(C)=O)c3ccnc4ccccc34)C(=O)O[C@]12C", "Staphylococcus aureus", 0.06),
    ("CCCCN(CCCN1C(=O)O[C@]2(C)[C@@H](CC)OC(=O)[C@@](C)(F)C(=O)[C@H](C)[C@@H](O[C@@H]3O[C@H](C)C[C@H](N(C)C)[C@H]3O)[C@@](C)(OC)C[C@@H](C)C(=O)[C@H](C)[C@@H]12)c1ccnc2ccccc12", "Staphylococcus aureus", 0.12),
]

For CC[C@H]1OC(=O)[C@@](C)(F)C(=O)[C@H](C)[C@@H](O[C@@H]2O[C@H](C)C[C@H](N(C)C)[C@H]2O)[C@@](C)(OC)C[C@@H](C)C(=O)[C@H](C)[C@H]2N(CCCn3ccc(=O)c4ccccc43)C(=O)O[C@]12C the compound record lists MIC as 0.12

###

- System: Escherichia coli
- protocolText: Antibacterial activity against ESBL-positive Escherichia coli ATCC 35218 assessed as inhibition of bacterial growth by CLSI based micro broth double dilution method
- Type: functional
measureName: MIC

Take a look at these entries with their results.
# compound, result
records = [
    ("CC[C@H]1OC(=O)[C@@](C)(F)C(=O)[C@H](C)[C@@H](O[C@@H]2O[C@H](C)C[C@H](N(C)C)[C@H]2O)[C@@](C)(OC)C[C@@H](C)C(=O)[C@H](C)[C@H]2N(CCCN(C(C)=O)c3cnc4ccccc4c3)C(=O)O[C@]12C", "> 32 µg/mL"),
    ("CCCCN(CCCN1C(=O)O[C@]2(C)[C@@H](CC)OC(=O)[C@@](C)(F)C(=O)[C@H](C)[C@@H](O[C@@H]3O[C@H](C)C[C@H](N(C)C)[C@H]3O)[C@@](C)(OC)C[C@@H](C)C(=O)[C@H](C)[C@@H]12)c1ccnc2ccccc12", "32 µg/mL"),
    ("CC[C@H]1OC(=O)[C@@](C)(F)C(=O)[C@H](C)[C@@H](O[C@@H]2O[C@H](C)C[C@H](N(C)C)[C@H]2O)[C@@](C)(OC)C[C@@H](C)C(=O)[C@H](C)[C@H]2N(CCCOc3ccnc4ccccc34)C(=O)O[C@]12C", "> 32 µg/mL"),
]

Would you be so kind as to report MIC for each listed record?
1. CC[C@H]1OC(=O)[C@@](C)(F)C(=O)[C@H](C)[C@@H](O[C@@H]2O[C@H](C)C[C@H](N(C)C)[C@H]2O)[C@@](C)(OC)C[C@@H](C)C(=O)[C@H](C)[C@H]2N(CCCN(C(C)=O)c3ccnc4ccccc34)C(=O)O[C@]12C
2. CC[C@H]1OC(=O)[C@@](C)(F)C(=O)[C@H](C)[C@@H](O[C@@H]2O[C@H](C)C[C@H](N(C)C)[C@H]2O)[C@@](C)(OC)C[C@@H](C)C(=O)[C@H](C)[C@H]2N(CCCN(Cc3ccccc3)c3ccnc4ccccc34)C(=O)O[C@]12C
3. CC[C@H]1OC(=O)[C@H](C)[C@@H](O[C@H]2C[C@@](C)(OC)[C@@H](O)[C@H](C)O2)[C@H](C)[C@@H](O[C@@H]2O[C@H](C)C[C@H](N(C)C)[C@H]2O)[C@](C)(OC)C[C@@H](C)C(=O)[C@H](C)[C@@H](O)[C@]1(C)O [CLARITHROMYCIN]
4. CC[C@H]1OC(=O)[C@@](C)(F)C(=O)[C@H](C)[C@@H](O[C@@H]2O[C@H](C)C[C@H](N(C)C)[C@H]2O)[C@@](C)(OC)C[C@@H](C)C(=O)[C@H](C)[C@H]2N(CCCN(C)c3ccnc4ccccc34)C(=O)O[C@]12C
5. CC[C@H]1OC(=O)[C@@](C)(F)C(=O)[C@H](C)[C@@H](O[C@@H]2O[C@H](C)C[C@H](N(C)C)[C@H]2O)[C@@](C)(OC)C[C@@H](C)C(=O)[C@H](C)[C@H]2N(CCCN(C(=O)/C=C/c3ccccc3)c3cnc4ccccc4c3)C(=O)O[C@]12C
6. CC[C@H]1OC(=O)[C@@](C)(F)C(=O)[C@H](C)[C@@H](O[C@@H]2O[C@H](C)C[C@H](N(C)C)[C@H]2O)[C@@](C)(OC)C[C@@H](C)C(=O)[C@H](C)[C@H]2N(CCCn3ccc(=O)c4ccccc43)C(=O)O[C@]12C
7. CC[C@H]1OC(=O)[C@@](C)(F)C(=O)[C@H](C)[C@@H](O[C@@H]2O[C@H](C)C[C@H](N(C)C)[C@H]2O)[C@@](C)(OC)C[C@@H](C)C(=O)[C@H](C)[C@H]2N(CCCN(C(=O)CCc3ccccc3)c3cnc4ccccc4c3)C(=O)O[C@]12C

32 µg/mL
> 32 µg/mL
> 64 µg/mL
> 32 µg/mL
> 32 µg/mL
> 32 µg/mL
> 32 µg/mL

Hey, quick one: what's MIC for each of these?
1. CC[C@H]1OC(=O)[C@@](C)(F)C(=O)[C@H](C)[C@@H](O[C@@H]2O[C@H](C)C[C@H](N(C)C)[C@H]2O)[C@@](C)(OC)C[C@@H](C)C(=O)[C@H](C)[C@H]2N(CCCNc3ccnc4ccccc34)C(=O)O[C@]12C
2. CC[C@H]1OC(=O)[C@@](C)(F)C(=O)[C@H](C)[C@@H](O[C@@H]2O[C@H](C)C[C@H](N(C)C)[C@H]2O)[C@@](C)(OC)C[C@@H](C)C(=O)[C@H](C)[C@H]2N(CCCN(C(=O)c3ccccc3)c3ccnc4ccccc34)C(=O)O[C@]12C

1: 8 µg/mL; 2: > 32 µg/mL
